test: Phase 1 SAD/MAD study in healthy subjects; type: in vivo, human; details: human, in vivo, oral, 3 g, steady state, 6 days, 3 g once daily
TEST READOUT: Tmax (min)
Unit min implied. Number only.

Request the reported Tmax associated with OC[C@@H](O)[C@@H](O)[C@@H](O)CO 30.2

---

experiment: 28-day repeat-dose oral toxicokinetics; format: in vivo, Bama minipig; details: male, Bama, minipig, plasma, po, 0.3 g/kg, 0.3 g/kg/dose BID, Day 28, Male; median (range)
TEST READOUT: Tmax (min)
Unit min implied. Number only.

Request the reported Tmax associated with OC[C@@H](O)[C@@H](O)[C@@H](O)CO [ribitol, (2R,3s,4S)-Pentane-1,2,3,4,5-pentol] 48

---

assay: 28-day repeat-dose oral toxicokinetics; format: in vivo, Bama minipig; details: male, Bama, minipig, plasma, po, 1 g/kg, 1.0 g/kg/dose BID, Day 28, Male; median (range)
TEST READOUT: Tmax (min)
Unit min implied. Number only.

Request the reported Tmax associated with OC[C@@H](O)[C@@H](O)[C@@H](O)CO [ribitol, (2R,3s,4S)-Pentane-1,2,3,4,5-pentol] 48

---

assay: 7-day repeat-dose oral toxicokinetics; format: in vivo, Bama minipig; details: female, Bama, minipig, plasma, po, 0.3 g/kg, 0.3 g/kg BID, Day 1, F
TEST READOUT: Tmax (min)
Unit min implied. Number only.

Request the reported Tmax associated with OC[C@@H](O)[C@@H](O)[C@@H](O)CO 48

---

assay: 28-day repeat-dose oral toxicokinetics; assay type: in vivo, Bama minipig; conditions: female, Bama, minipig, plasma, po, 0.1 g/kg, 0.1 g/kg/dose BID, Day 1, Female; mean ± SD; read-out: Cmax
TEST READOUT: Cmax (ng/mL)
Unit ng/mL implied. Number only.

Request the reported Cmax associated with OC[C@@H](O)[C@@H](O)[C@@H](O)CO [ribitol, (2R,3s,4S)-Pentane-1,2,3,4,5-pentol] 39600

---

assay: 7-day repeat-dose oral toxicokinetics; assay type: in vivo, Bama minipig; details: female, Bama, minipig, plasma, po, 0.1 g/kg, 0.1 g/kg BID, Day 1, F
TEST READOUT: Cmax (µg/mL)
Unit µg/mL implied. Number only.

Request the reported Cmax associated with OC[C@@H](O)[C@@H](O)[C@@H](O)CO [ribitol, (2R,3s,4S)-Pentane-1,2,3,4,5-pentol] 53.1

---

test: Single oral dose PK; format: in vivo, CD-1 mouse; details: CD-1, mouse, plasma; single PO 0.3 g/kg, female; read-out: T1/2 (converted)
TEST READOUT: half-life (h)
Unit h implied. Number only.

Request the reported half-life associated with OC[C@@H](O)[C@@H](O)[C@@H](O)CO [ribitol, (2R,3s,4S)-Pentane-1,2,3,4,5-pentol] 1.31

---

experiment: Single oral dose PK; type: in vivo; settings: Bama, minipig, plasma; single PO 1.0 g/kg, female
TEST READOUT: AUC(0-inf) (µg·h/mL)
Unit µg·h/mL implied. Number only.

Request the reported AUC(0-inf) associated with OC[C@@H](O)[C@@H](O)[C@@H](O)CO 878

---

Test: Phase 1 SAD/MAD study in healthy subjects
Format: in vivo, human
Conditions: human, in vivo, oral, 3 g, steady state, 6 days, 3 g q 12 h (total 6 g/day)
Procedure: The study described below is a randomized, blinded, placebo-controlled, parallel group study of the administration of single ascending doses (SAD) and multiple ascending doses (MAD) of ribitol to healthy subjects. […] Up to a maximum of 6 cohorts will be enrolled. […] Once the informed consent form (ICF) is signed and eligibility criteria are determined, subjects will be admitted to the clinical research unit (CRU) 1 day prior to dosing (Day −1). […]
TEST READOUT: Cmax (ng/mL)
Unit ng/mL implied. Number only.

Request the reported Cmax associated with OC[C@@H](O)[C@@H](O)[C@@H](O)CO 38000

---

experiment: Phase 1 SAD/MAD study in healthy subjects; format: in vivo, human; conditions: human, in vivo, oral, 6 g q 12 h, steady state, 6 days, 6 g q 12 h (total 12 g/day)
TEST READOUT: Tmax (min)
Unit min implied. Number only.

Request the reported Tmax associated with OC[C@@H](O)[C@@H](O)[C@@H](O)CO 45

---

assay: PK comparison QD, BID, TID oral dosing; assay type: in vivo; conditions: male, CD-1, mouse, plasma, po, 0.3 g/kg, PO 0.3 g/kg/dose BID, last dose
TEST READOUT: half-life (h)
Unit h implied. Number only.

Request the reported half-life associated with OC[C@@H](O)[C@@H](O)[C@@H](O)CO 1.5

---

assay: Single oral dose PK; format: in vivo; settings: Bama, minipig, plasma; single PO 1.0 g/kg, male; read-out: Tmax
TEST READOUT: Tmax (min)
Unit min implied. Number only.

Request the reported Tmax associated with OC[C@@H](O)[C@@H](O)[C@@H](O)CO 30

---

Test: Single intravenous dose PK
Format: in vivo, Bama minipig
Details: Bama, minipig, plasma; IV 10 mg/kg, male
Experimental: The PK of ribitol was studied in 2 male and 2 female Bama minipigs following escalating IV doses levels using the same animals with a 48 hour washout period at 10 mg/kg (Day 1), 30 mg/kg (Day 3) and 100 mg/kg (Day 5). On each dosing day, blood samples were collected serially up to 24 hours post dose.
TEST READOUT: AUC(0-inf) (ng·h/mL)
Unit ng·h/mL implied. Number only.

Request the reported AUC(0-inf) associated with OC[C@@H](O)[C@@H](O)[C@@H](O)CO [ribitol, (2R,3s,4S)-Pentane-1,2,3,4,5-pentol] 11200

---

experiment: Metabolic stability in liver microsomes, cytosol, hepatocytes; format: in vitro ADME; conditions: human, primary hepatocytes, Hepatocytes
TEST READOUT: half-life at 10 μM

Request the reported half-life at 10 μM associated with OC[C@@H](O)[C@@H](O)[C@@H](O)CO > 6.07 h

---

test: PK comparison QD, BID, TID oral dosing; type: in vivo; settings: female, CD-1, mouse, plasma, po, 0.3 g/kg, PO 0.3 g/kg QD
TEST READOUT: AUC(0-inf) (ng·h/mL)
Unit ng·h/mL implied. Number only.

Request the reported AUC(0-inf) associated with OC[C@@H](O)[C@@H](O)[C@@H](O)CO 47100

---

assay: 28-day repeat-dose oral toxicokinetics; assay type: in vivo, Bama minipig; conditions: female, Bama, minipig, plasma, po, 0.3 g/kg, 0.3 g/kg/dose BID, Day 28, Female; median (range)
TEST READOUT: Tmax (h)
Unit h implied. Number only.

Request the reported Tmax associated with OC[C@@H](O)[C@@H](O)[C@@H](O)CO 4.3

---

assay: 28-day repeat-dose oral toxicokinetics; type: in vivo, Bama minipig; details: female, Bama, minipig, plasma, po, 1 g/kg, 1.0 g/kg/dose BID, Day 1, Female; mean ± SD; read-out: AUC0-24
TEST READOUT: AUC(0-t) (µg·h/mL)
Unit µg·h/mL implied. Number only.

Request the reported AUC(0-t) associated with OC[C@@H](O)[C@@H](O)[C@@H](O)CO 1770

---

assay: 7-day repeat-dose oral toxicokinetics; format: in vivo, Bama minipig; conditions: male, Bama, minipig, plasma, po, 0.3 g/kg, 0.3 g/kg BID, Day 1, M
TEST READOUT: Cmax (µg/mL)
Unit µg/mL implied. Number only.

Request the reported Cmax associated with OC[C@@H](O)[C@@H](O)[C@@H](O)CO [ribitol, (2R,3s,4S)-Pentane-1,2,3,4,5-pentol] 117

---

Assay: 28-day repeat-dose oral toxicokinetics
Assay type: in vivo, CD-1 mouse
Conditions: female, CD-1, mouse, plasma, po, 1.5 g/kg, 1.5 g/kg/dose BID, Day 1, Female
Description: Toxicokinetics of ribitol was evaluated as part of the 28-day toxicology study in male and female CD-1 mice. […] Toxicokinetic animals were 12/sex in the control group and 48/sex/group in the treated groups. Blood samples were collected on Day 1 and Day 28 at pre-first dose, 0.5, 2, 4, 8 (prior to second dose), 8.5, 10, and 24 h.
TEST READOUT: Tmax (h)
Unit h implied. Number only.

Request the reported Tmax associated with OC[C@@H](O)[C@@H](O)[C@@H](O)CO [ribitol, (2R,3s,4S)-Pentane-1,2,3,4,5-pentol] 8.5

---

assay: PK comparison QD, BID, TID oral dosing; assay type: in vivo; conditions: male, CD-1, mouse, plasma, po, 0.3 g/kg, PO 0.3 g/kg QD
TEST READOUT: AUC(0-inf) (ng·h/mL)
Unit ng·h/mL implied. Number only.

Request the reported AUC(0-inf) associated with OC[C@@H](O)[C@@H](O)[C@@H](O)CO 45200

---

experiment: 7-day repeat-dose oral toxicokinetics; type: in vivo, CD-1 mouse; settings: female, CD-1, mouse, plasma, po, 1.5 g/kg, 1.5 g/kg/dose BID, Day 1, F
TEST READOUT: Tmax (h)
Unit h implied. Number only.

Request the reported Tmax associated with OC[C@@H](O)[C@@H](O)[C@@H](O)CO 6.5
